Target Of Assay: Pantothenate synthetase (Mycobacterium tuberculosis (strain ATCC 25618 / H37Rv)) (UniProt P9WIL5)
Sequence (P9WIL5 whole entry, looked up): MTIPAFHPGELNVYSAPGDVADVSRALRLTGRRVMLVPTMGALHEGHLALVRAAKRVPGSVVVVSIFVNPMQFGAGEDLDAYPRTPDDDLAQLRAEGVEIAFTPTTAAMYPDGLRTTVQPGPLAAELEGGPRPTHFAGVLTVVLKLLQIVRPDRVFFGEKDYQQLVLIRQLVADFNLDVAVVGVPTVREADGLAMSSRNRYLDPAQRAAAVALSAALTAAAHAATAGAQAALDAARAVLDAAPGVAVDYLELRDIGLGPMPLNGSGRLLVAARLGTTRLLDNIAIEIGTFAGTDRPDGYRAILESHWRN
Assay Remarks: Coupled enzyme confirmation of inhibitors against recombinant Mtb PanC (AID 375);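 note: 0% = full reaction with vehicle and 100% = no enzyme background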
Details: coupled enzyme assay; at 10 µM, hits give high values
Given measured inhibition, output 1 if it is greater than or equal to 2% and 0 if not.

{"columns": ["Compound", "Assigned Category"],
 "data": [
  ["CN(C(=O)c1ccc(S(=O)(=O)NC2CCCC2)cc1)C1CCCCC1", 1],
  ["COc1cccc(NC(=O)N[C@@H](Cc2ccccc2)C(=O)O)c1", 0],
  ["OC(CNC1CCCCC1)c1ccccc1 (stereo not drawn)", 1],
  ["Cc1ccc(NC(=O)CSc2nnc(CNC(=O)c3c(F)cccc3Cl)o2)cc1", 1],
  ["O=C(Cn1cnc2c(nnn2-c2ccc(F)cc2)c1=O)N1CCCc2ccccc21", 0],
  ["Cc1nnc(SCC(=O)NCc2ccc3c(c2)OCO3)s1", 1],
  ["CCOc1ccc(NCCC(=O)c2ccc3c(c2)OCO3)cc1", 0],
  ["CCN(C(=O)c1cn(C)c(=O)c2cc(OC)c(OC)cc12)c1ccccc1C", 1],
  ["CN(C)c1ccc(C(=O)OCC(=O)NC2CCCCC2)cc1", 0],
  ["CC(=O)Nc1ccc(N=Cc2nc(-c3ccc(C)cc3)oc2O)cc1", 0],
  ["COC(=O)C1CCN(C(=O)c2sc3nc(-c4ccc(F)cc4)cn3c2C)CC1", 0],
  ["Cc1ccc(C)c(N(CC(=O)NCc2ccco2)C(=O)CCC(=O)Nc2ccccn2)c1", 0],
  ["CC(=O)NCCc1nc2ccccc2[nH]1", 0],
  ["CCC1CCCCN1S(=O)(=O)c1ccc(C(=O)Nc2nnc(-c3ccccc3Cl)o2)cc1 (stereo not drawn)", 1],
  ["CCOc1ccc(NC(=O)CSc2nnc(COc3c(C)cccc3C)o2)cc1", 0],
  ["[N-]=[N+]=CC(=O)CC(c1ccccc1)N1C(=O)c2ccccc2C1=O (stereo not drawn)", 0],
  ["COC(=O)c1ccc(CSc2nc3c(cnn3-c3ccc(C)c(C)c3)c(=O)[nH]2)o1", 1],
  ["Cn1c(=O)[nH]c(=O)c2c1nc(N1CCCCCC1)n2CCCSc1nc2ccccc2o1", 1],
  ["CCOC(=O)CC(=O)CSc1[nH]c(=O)cc(C)c1C#N", 1],
  ["CCc1ccccc1N1C(=O)C2CC(C)=C(C)CC2C1=O (stereo not drawn)", 0],
  ["O=C(OCC(=O)N1CCC(Cc2ccccc2)CC1)c1ccc[nH]c1=O", 0]
]}

---

Parameter: inhibition. Scope: all listed entries.
Target Of Assay: Pantothenate synthetase (Mycobacterium tuberculosis (strain ATCC 25618 / H37Rv)) (UniProt P9WIL5)
Assay Remarks: Coupled enzyme confirmation of inhibitors against recombinant Mtb PanC (AID 375);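 note: 0% = full reaction with vehicle and 100% = no enzyme background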
Details: coupled enzyme assay; at 10 µM, hits give high values

{"columns": ["Compound", "inhibition, %"],
 "data": [
  ["CCOc1ccc2[nH]cc(C(=O)N3CCN(CC)CC3)c(=O)c2c1", 0],
  ["Cc1nc2ccccc2cc1O", 0],
  ["O=C(CCCn1c(=O)c2sccc2n(Cc2cc(=O)n3ccccc3n2)c1=O)NCc1ccco1", 0],
  ["COc1cccc(CNC(=O)C2CCN(S(=O)(=O)c3ccc(F)cc3)CC2)c1", 8],
  ["COc1ccccc1NC(=O)N(Cc1ccco1)Cc1cc2c(C)ccc(C)c2[nH]c1=O", 0],
  ["CCN1CCN(C(=O)N[C@@H](C(=O)N[C@@H]2C(=O)N3[C@@H]2SC(C)(C)[C@@H]3C(=O)O)c2ccccc2)C(=O)C1=O", 2],
  ["O=C(CN(c1ccc(F)cc1)S(=O)(=O)c1ccc2c(c1)OCCO2)NCC1CCCO1 (stereo not given)", 0],
  ["O=c1c2ccccc2nc(-c2cccc(Cl)c2)n1O", 4],
  ["Cc1ccc(NC(=O)N2CCC(c3nc4c(nnn4Cc4cccc(Cl)c4)c(=O)[nH]3)CC2)cc1", 0],
  ["Cc1cccc(N(CC(N)=O)S(C)(=O)=O)c1C", 0]
]}

---

Target Of Assay: Pantothenate synthetase (Mycobacterium tuberculosis (strain ATCC 25618 / H37Rv))
Assay Remarks: Coupled enzyme confirmation of inhibitors against recombinant Mtb PanC (AID 375);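 note: 0% = full reaction with vehicle and 100% = no enzyme background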
Details: coupled enzyme assay; at 10 µM, hits give high values
Given measured inhibition, output class 1 if it is greater than or equal to 1% and class 0 if not.

{"columns": ["Compound", "Target Of Assay", "Assigned Category"],
 "data": [
  ["O=C(O)C1CCCN1C(=O)c1cccs1 (centres undefined)", "Pantothenate synthetase (Mycobacterium tuberculosis (strain ATCC 25618 / H37Rv))", "class 1"],
  ["CCCCc1cc(=O)oc2cc(OCC(=O)N(CC)CC)c(Cl)cc12", "Pantothenate synthetase (Mycobacterium tuberculosis (strain ATCC 25618 / H37Rv))", "class 0"],
  ["COC(=O)CCC(=O)CN", "Pantothenate synthetase (Mycobacterium tuberculosis (strain ATCC 25618 / H37Rv))", "class 0"],
  ["CCC(=O)Nc1nn(C)c2nc3c(C)cccc3cc12", "Pantothenate synthetase (Mycobacterium tuberculosis (strain ATCC 25618 / H37Rv))", "class 0"],
  ["CCC(=O)N1CCc2cc(S(=O)(=O)CCC(=O)Nc3ccc(C)c(F)c3)ccc21", "Pantothenate synthetase (Mycobacterium tuberculosis (strain ATCC 25618 / H37Rv))", "class 0"],
  ["COCCn1c(SCC(=O)Nc2sc(C)c(C)c2C#N)nnc1C(C)C", "Pantothenate synthetase (Mycobacterium tuberculosis (strain ATCC 25618 / H37Rv))", "class 0"],
  ["O=C(CN1c2cccc3cccc(c23)S1(=O)=O)N1CCOCC1", "Pantothenate synthetase (Mycobacterium tuberculosis (strain ATCC 25618 / H37Rv))", "class 0"],
  ["[O-][n+]1c2c(nn1-c1ccccc1Cl)-c1nonc1CC2", "Pantothenate synthetase (Mycobacterium tuberculosis (strain ATCC 25618 / H37Rv))", "class 1"],
  ["COc1ccc(NS(=O)(=O)c2coc(C(N)=O)c2)cc1Cl", "Pantothenate synthetase (Mycobacterium tuberculosis (strain ATCC 25618 / H37Rv))", "class 0"],
  ["C=CCn1c(Cc2cccs2)nnc1SCC(=O)Nc1ccc(OC)c(OC)c1", "Pantothenate synthetase (Mycobacterium tuberculosis (strain ATCC 25618 / H37Rv))", "class 0"],
  ["CCCCOc1ccc(-c2nnc(N)s2)cc1", "Pantothenate synthetase (Mycobacterium tuberculosis (strain ATCC 25618 / H37Rv))", "class 0"],
  ["CCCc1cc(C(=O)Nc2ccc(C(C)=O)cc2)no1", "Pantothenate synthetase (Mycobacterium tuberculosis (strain ATCC 25618 / H37Rv))", "class 0"],
  ["Oc1ccc2cccnc2c1", "Pantothenate synthetase (Mycobacterium tuberculosis (strain ATCC 25618 / H37Rv))", "class 1"],
  ["O=c1c2ccccc2nc2n1CCN2", "Pantothenate synthetase (Mycobacterium tuberculosis (strain ATCC 25618 / H37Rv))", "class 0"],
  ["O=S(=O)(Nc1ccn(-c2ccccc2)n1)c1ccc(Br)cc1", "Pantothenate synthetase (Mycobacterium tuberculosis (strain ATCC 25618 / H37Rv))", "class 0"],
  ["COc1ccc2c(-c3cccnc3)cc(=O)[nH]c2c1", "Pantothenate synthetase (Mycobacterium tuberculosis (strain ATCC 25618 / H37Rv))", "class 1"],
  ["Cc1ccc(S(=O)(=O)NCCCCC(NC(=O)OC(C)(C)C)C(=O)O)cc1 (centres undefined) (tested in a mixture with another compound)", "Pantothenate synthetase (Mycobacterium tuberculosis (strain ATCC 25618 / H37Rv))", "class 0"],
  ["Nc1ncnc2oc(-c3ccco3)c(-c3ccco3)c12", "Pantothenate synthetase (Mycobacterium tuberculosis (strain ATCC 25618 / H37Rv))", "class 1"],
  ["CCOC(=O)c1sc2nc(SCC(=O)NCc3ccco3)n(Cc3ccccc3)c(=O)c2c1C", "Pantothenate synthetase (Mycobacterium tuberculosis (strain ATCC 25618 / H37Rv))", "class 0"],
  ["O=C(Nc1cccnc1)c1cc2c(ccc3ccccc32)o1", "Pantothenate synthetase (Mycobacterium tuberculosis (strain ATCC 25618 / H37Rv))", "class 0"],
  ["C/C(=C\\c1cc(C(=O)O)c(C)o1)CO", "Pantothenate synthetase (Mycobacterium tuberculosis (strain ATCC 25618 / H37Rv))", "class 0"],
  ["CCCCC(=O)O[C@H]1CC[C@H]2[C@@H]3CCc4cc(O)ccc4[C@H]3CC[C@]12C", "Pantothenate synthetase (Mycobacterium tuberculosis (strain ATCC 25618 / H37Rv))", "class 1"]
]}

---

Assay Remarks: viability of PTEN-null HCT116 cells – cell-based, HCT116 clonal line, CellTiter-Glo, pilot screen (AID 824);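 note: 0% = 20 µM Hyamine control and 100% = vehicle cell control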
Details: HCT116 PTEN-deleted viability, 60 h, at 10 µM, hits give low values
Records with an inconclusive call do not appear.
Parameter: viability. Scope: all listed entries.
Readout Type: viability (%)

{"columns": ["Molecule", "Readout Type", "Readout Units", "Observed Result"],
 "data": [
  ["OC12Oc3ccccc3C=C1N1CCC2CC1 (stereo not drawn)", "viability", "%", 96.8],
  ["CC1(C)CN=C(Nc2ccc(F)c(F)c2)S1", "viability", "%", 101],
  ["COc1ccc(N2C(=O)CC(N3CC=C(c4ccccc4)CC3)C2=O)cc1 (stereo not drawn)", "viability", "%", 103],
  ["CC(=O)Nc1ccc(OC(=O)N(C)c2ccccc2)cc1", "viability", "%", 100],
  ["COc1ccc2nc(NC(=O)CCc3nc(C4=CCN(C)CC4)no3)sc2c1", "viability", "%", 91.7],
  ["COc1ccccc1N=Cc1c(O)n(C)c(=O)n(C)c1=O", "viability", "%", 99.6],
  ["CC1CCCCN1CC(=O)c1ccc2cc[nH]c2c1 (stereo not drawn)", "viability", "%", 89.4],
  ["COCCOC(=O)C1=C(N)OC(C)=C(C(=O)OC)C12C(=O)Nc1ccccc12 (stereo not drawn)", "viability", "%", 93],
  ["Cc1ccc2c(c1)C1CN(C)CCC1N2C(=O)c1ccco1 (stereo not drawn)", "viability", "%", 91.9],
  ["CN(C(=O)Oc1cccc2cccnc12)c1ccccc1", "viability", "%", 90.1],
  ["CC(CO)(CO)N=Cc1c(O)n(-c2cccc3ccccc23)c(=O)[nH]c1=O", "viability", "%", 99],
  ["O=C(CN1CC(c2ccccc2)CC1=O)Nc1ccccc1 (stereo not drawn)", "viability", "%", 95.4],
  ["CCOC(=O)c1c(C)n(Cc2ccccc2)c2ccc(OCC(O)Cn3nc(C)nc3C)cc12 (stereo not drawn)", "viability", "%", 88.3],
  ["Nc1ccccc1C(=O)c1ccccc1", "viability", "%", 88.7],
  ["COc1ccc(C2C(C(=O)N3CCC4(CC3)OCCO4)c3cc(OC)c(OC)cc3C(=O)N2C)cc1 (stereo not drawn)", "viability", "%", 99.4],
  ["O=C1CC(N2CC=C(c3ccccc3)CC2)C(=O)N1c1ccc(F)cc1 (stereo not drawn)", "viability", "%", 97.3],
  ["CCc1ccc(OCCCN=C(C)c2c(O)n(C)c(=O)n(C)c2=O)cc1", "viability", "%", 80.8],
  ["c1ccc2c(CN3CCCCCCC3)c[nH]c2c1", "viability", "%", 67.8],
  ["COc1cc2c(cc1OC)C(C(=O)N1CCC3(CC1)OCCO3)C(c1ccccc1F)N(C)C2=O (stereo not drawn)", "viability", "%", 84.3],
  ["COc1cc2c(cc1OC)-c1c(OC)c(OC)cc3c1C(C2)N(C)CC3 (stereo not drawn)", "viability", "%", 61.6],
  ["COc1cccc(OCC(=O)N2CCN(C)CC2)c1", "viability", "%", 102],
  ["O=C(Cc1ccc(Br)cc1)N1CCN(Cc2ccccc2)CC1", "viability", "%", 72.7],
  ["COC(=O)C(O)(c1ccc(N(C)S(=O)(=O)c2ccccc2)cc1)C(F)(F)F (stereo not drawn)", "viability", "%", 108]
]}
